B1: FAM50A (parent)
chain: KKREKQREQMEQMKQRIAEENIMK

# Variants of: B1
# measurement_description: protein stability index of a GFP-peptide fusion (GPS, HEK-293T) (PSI 1-6); higher = more stable;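 also: lentivirally expressed fusions sorted by FACS into six bins by GFP to DsRed ratio, PSI derived from sequencing read proportions per bin multiplied by bin number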
# condition_label: c terminus: a fixed tail appended
Here the recorded protein stability index is given for each entry.
reported_property: protein stability index

In [3]: df
Out[3]:
    variant_string  assay_result
 0            E19K          5.08
 1            K24I          4.35
 2             K5T          5.16
 3             Q6L          4.13
 4             K5Y          4.11
 5            K24F          4.39
 6             K5H          5.12
 7             Q9N           4.8
 8            I22R          4.92
 9             E4F          4.39
10            R16L          4.51
11            Q12K          4.57
12            Q15P           4.9
13             R7H          5.08
14             E8Q          4.82
15            Q12N          5.04
16            E11W           3.9
17             K5W          4.46
18            N21T          4.77
19             K2T          5.07
20             R3G          5.18
21             E8N          4.44
